Biological target: ALDH2 (Homo sapiens, UniProt P05091)
Construct: purchased Abcam 87415
Sequence (P05091 18-517): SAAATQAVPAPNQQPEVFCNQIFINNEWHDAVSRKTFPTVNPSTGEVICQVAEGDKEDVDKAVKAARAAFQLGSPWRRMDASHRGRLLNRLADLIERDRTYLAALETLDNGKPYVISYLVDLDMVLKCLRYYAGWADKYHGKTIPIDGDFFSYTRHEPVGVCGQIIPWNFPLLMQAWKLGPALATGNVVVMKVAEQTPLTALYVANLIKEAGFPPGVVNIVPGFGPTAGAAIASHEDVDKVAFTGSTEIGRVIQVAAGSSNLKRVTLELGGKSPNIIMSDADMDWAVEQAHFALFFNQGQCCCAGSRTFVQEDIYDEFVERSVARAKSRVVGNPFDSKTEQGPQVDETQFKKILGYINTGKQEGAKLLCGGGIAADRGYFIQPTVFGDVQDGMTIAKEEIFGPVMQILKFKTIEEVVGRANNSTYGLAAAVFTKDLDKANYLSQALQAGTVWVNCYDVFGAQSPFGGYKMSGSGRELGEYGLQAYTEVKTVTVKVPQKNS
Assay: Fluorescence-based ALDH2 enzymatic inhibition assay (NADH fluorescence)
Type: biochemical
Conditions: ALDH2 50 nM, formaldehyde 300 μM, NAD+ 1.2 mM, pH 7.4, 25° C.; read-out: IC50, ALDH2 enzymatic assay

molecule | IC50 / µM
CS(=O)(=O)Nc1ccc(-c2cn3cc(C(=O)O)sc3n2)cc1 [YA7241] | 1.9
